Tested on: anesthetized cats (evoked responses of anterior tibial muscle)
Measurement Protocol: animal or person
Applied Conditions: Felis catus, iv
Measured Parameter: ED50 (mg/kg)

>>> measurement("CC(=O)Oc1ccc(C[N+]2(C)[C@@H]3CC[C@H]2C[C@@H](OC(=O)CCCC(=O)O[C@H]2C[C@H]4CC[C@@H](C2)[N+]4(C)Cc2ccc(OC(C)=O)c(OC(C)=O)c2)C3)cc1OC(C)=O.[Br-].[Br-] (stereo partly shown)")
0.183
>>> measurement("COc1cc(C[N+]2(C)[C@@H]3CC[C@H]2C[C@@H](OC(=O)C2CCC2C(=O)O[C@H]2C[C@H]4CC[C@@H](C2)[N+]4(C)Cc2ccc(OC(C)=O)c(OC)c2)C3)ccc1OC(C)=O.[Br-].[Br-] (stereo partly shown)")
0.16
>>> measurement("C[N+]1(CC2CC2)[C@@H]2CC[C@H]1C[C@@H](OC(=O)CCCCCCC(=O)O[C@H]1C[C@H]3CC[C@@H](C1)[N+]3(C)CC1CC1)C2.[Br-].[Br-] (stereo partly shown) [reference compound]")
0.155
>>> measurement("COc1ccc(CC2c3cc(OC)c(OC)cc3CC[N+]2(C)CCC(=O)OCCCCCOC(=O)CC[N+]2(C)CCc3cc(OC)c(OC)cc3C2Cc2ccc(OC)c(OC)c2)cc1OC (stereo not shown) [Atracurium, reference compound]")
0.068
